# Tested on: murine hepatocytes
# procedure summary: Assay E: Stability in murine hepatocytes
# Format: in vitro ADME, mouse
# test parameters: 1 μM
reported endpoint: Mouse Hepatocyte Stability QH (%)
Supply the numeric figure in %, leaving out any unit text.

Here's what some known entries look like.
>>> observed_measurement("Cn1cncc1C1CCN(c2c(C#N)cccc2-c2ccc(F)nc2)CC1 [QP5038, reference compound]")
97
>>> observed_measurement("Cc1nn(C)c(C)c1-c1cc(C#N)c(N2CCC(F)(c3nncn3C)CC2)c(-c2ccc(F)nc2)c1")
25
>>> observed_measurement("Cn1cnnc1C1(F)CCN(c2c(C#N)cc(C(C)(C)O)cc2-c2ccc(F)nc2)CC1")
23

What the record says about Cc1ncc(-c2cc(C#N)c(N3CCC(F)(c4nncn4C)CC3)c(-c3ccc(F)nc3)c2)o1 : Mouse Hepatocyte Stability QH is 15

What the record says about Cn1cnnc1C1(F)CCN(c2c(C#N)cc(-c3cnc(C(F)(F)F)nc3)cc2-c2ccc(F)nc2)CC1 : Mouse Hepatocyte Stability QH is 20
